From: patent US20100210649A1

pIC50 values by entry
# System: H2122
# assayDetails: Dose response study (Alamar Blue), H2122
# Type: cell-based
# details: Homo sapiens, NCI-H2122; H2122; 12 point doubling dilution 10 uM to 5 nM; 48 h treatment, alamar blue additional 48 h; read-out: IC50 H2122
Answer as the number alone; pIC50 is minus log10 of concentration in mol/L.

| moleculeSmiles | assayReadout | result |
| --- | --- | --- |
| O=c1c(Cl)c(Cl)cnn1-c1ccc(C(F)(F)F)cc1 | pIC50 | 5.22 |
| O=c1c(Cl)c(Cl)cnn1Cc1ccccc1 | pIC50 | 5.04 |

Tested on H2122, the item "O=c1c(Cl)c(Cl)cnn1-c1cccc(C(F)(F)F)c1" showed pIC50 equal to 5.82

Note to self: pIC50 of "O=c1c(Cl)c(Cl)cnn1-c1ccccn1" with H2122 was 6.05

* * *

# assayDetails: in vitro
# details: human, CytoTox (uM) NHBE
Sorting guide: entries reporting IC50 at 72 h beneath 3 µM go in the T pile, the rest go in the F pile.

Please review the following examples before continuing.
| compound | assignedLabel |
| --- | --- |
| Cc1cccc(-n2ncc(N=[N+]=[N-])c(Cl)c2=O)c1 [compound 267082] | F |
| COCCOc1cccc(-n2ncc(Br)c(Br)c2=O)c1 [compound 267084] | T |
| Cc1cccc(-n2ncc(I)c(I)c2=O)c1 [compound 267085] | T |
| COc1ccc(=O)n(-c2cccc(C)c2)n1 [compound 257029] | F |

Task item: Is IC50 at 72 h of Cc1ccc(-n2ncc(Cl)c(Cl)c2=O)cc1 [compound 257016] strictly below 3 µM?
Reply: F

Task item: Please let me know if O=c1c(Cl)c(SCc2ccccc2)cnn1-c1ccccc1 [compound 257022] shows IC50 at 72 h below 3 µM.
Reply: F

Task item: Does N/N=C1\C=NN(c2ccccc2)C(=O)C1Cl (stereo not drawn) [compound 257023] have IC50 at 72 h strictly under 3 µM?
Reply: F

Task item: Lab note: IC50 at 72 h threshold 3 µM. Does this compound come in strictly under it? CCc1cccc(-n2ncc(Cl)c(Cl)c2=O)c1 [compound 267062]
Reply: T

Task item: Please check: IC50 at 72 h for CN/N=C1\C=NN(c2ccc(C)cc2)C(=O)C1Cl (stereo not drawn) [compound 257025] , strictly under 3 µM or not?
Reply: F

Task item: hey, is IC50 at 72 h for O=c1c(Br)c(Br)cnn1-c1ccccc1 [compound 257015] lower than 3 µM or not?
Reply: T

Task item: Decide: IC50 at 72 h of Cc1cccc(-n2ncc(Br)c(Br)c2=O)c1 [compound 267071] strictly below 3 µM?
Reply: T

Task item: is_below(IC50 at 72 h, 3 µM) for O=c1c(Cl)c(Cl)cnn1-c1ccc(Cl)cc1Cl [compound 267077] ?
Reply: T

* * *

Quick reference: IC50 of the listed items.
# Tested on: H2030
# assayDetails: Non Small Cell Lung Cancer proliferation assay (Alamar Blue reduction), H2030
# Assay type: cell-based, human
# details: Homo sapiens, NCI-H2030, dose response 10 M to 5 nM; IC50; read-out: Dose Response (uM) H2030
Hi! Could you send only the number? It should be in µM, unit omitted.

# annotated cases, reported IC50 shown
| compound | measureUnit | IC50 |
| --- | --- | --- |
| O=c1c(Cl)c(Cl)cnn1-c1cccc(C(F)(F)F)c1 [compound 176729] | µM | 0.34 |
| Cc1cccc(-n2ncc(I)c(I)c2=O)c1 [compound 267085] | µM | 0.99 |

Next compound, please.
Record O=c1c(Cl)c(Cl)cnn1-c1ccccc1 [compound 257014] . Reported IC50: 0.55
